- System: UniProtKB Q16816
- Sequence (Q16816 whole entry, looked up): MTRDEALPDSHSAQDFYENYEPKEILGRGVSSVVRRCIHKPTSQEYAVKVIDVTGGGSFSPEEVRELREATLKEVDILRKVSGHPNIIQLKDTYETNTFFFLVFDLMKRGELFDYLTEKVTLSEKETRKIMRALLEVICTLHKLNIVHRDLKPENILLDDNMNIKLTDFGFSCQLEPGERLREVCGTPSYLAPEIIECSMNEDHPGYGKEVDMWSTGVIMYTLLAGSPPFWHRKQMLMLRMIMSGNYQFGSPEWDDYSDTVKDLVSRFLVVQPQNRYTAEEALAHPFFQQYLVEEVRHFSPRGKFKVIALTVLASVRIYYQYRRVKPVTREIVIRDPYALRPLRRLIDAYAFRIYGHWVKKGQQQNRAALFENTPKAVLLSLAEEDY
- Assay: KINOMEscan competition binding
- Test Parameters: compound 10.0 µM
# kinase still bound, per cent of control values compiled below
Parameter: kinase still bound, per cent of control (%)

{"columns": ["Substance Smiles", "System", "Parameter", "Quantity Unit", "Recorded Number"],
 "data": [
  ["CNC(=O)c1cc(Oc2ccc(NC(=O)Nc3ccc(Cl)c(C(F)(F)F)c3)cc2)ccn1", "UniProtKB Q16816", "kinase still bound, per cent of control", "%", 90],
  ["COc1cc(C(=O)N2CCC(N3CCN(C)CC3)CC2)ccc1Nc1ncc2c(n1)N(C)c1ccccc1C(=O)N2C", "UniProtKB Q16816", "kinase still bound, per cent of control", "%", 54],
  ["O=C(Nc1cccc(Nc2ncc(Br)c(NCCc3cnc[nH]3)n2)c1)N1CCCC1", "UniProtKB Q16816", "kinase still bound, per cent of control", "%", 2.3],
  ["O=C1NC(=O)/C(=C/c2ccc3nccc(-c4ccncc4)c3c2)S1", "UniProtKB Q16816", "kinase still bound, per cent of control", "%", 31],
  ["Cc1n[nH]c2ccc(-c3cncc(OC[C@@H](N)Cc4c[nH]c5ccccc45)c3)cc12", "UniProtKB Q16816", "kinase still bound, per cent of control", "%", 8],
  ["CCN(CC)CCCCNc1ncc2cc(-c3cc(OC)cc(OC)c3)c(NC(=O)NC(C)(C)C)nc2n1", "UniProtKB Q16816", "kinase still bound, per cent of control", "%", 100],
  ["COc1cc2ncnc(-n3nc(-c4ccccn4)nc3N)c2cc1OC", "UniProtKB Q16816", "kinase still bound, per cent of control", "%", 55],
  ["COCC(=O)NC/C=C/c1ccc2ncnc(Nc3ccc(Oc4ccc(C)nc4)c(C)c3)c2c1", "UniProtKB Q16816", "kinase still bound, per cent of control", "%", 100],
  ["C[C@@H](Oc1cc(-c2cnn(C3CCNCC3)c2)cnc1N)c1c(Cl)ccc(F)c1Cl", "UniProtKB Q16816", "kinase still bound, per cent of control", "%", 100],
  ["COc1cc(N2CCN(C)CC2)ccc1Nc1ncc2c(n1)N(C)c1ccccc1C(=O)N2C", "UniProtKB Q16816", "kinase still bound, per cent of control", "%", 100],
  ["COc1cc2ncn(-c3cc(OCc4ccccc4C(F)(F)F)c(C(N)=O)s3)c2cc1OC", "UniProtKB Q16816", "kinase still bound, per cent of control", "%", 88],
  ["CNC(=O)c1ccc(Nc2cc(Nc3ccccc3S(=O)(=O)C(C)C)c3cc[nH]c3n2)nc1", "UniProtKB Q16816", "kinase still bound, per cent of control", "%", 100],
  ["N#CCNC(=O)c1ccc(-c2ccnc(Nc3ccc(N4CCOCC4)cc3)n2)cc1", "UniProtKB Q16816", "kinase still bound, per cent of control", "%", 78],
  ["CCN(CC)CCCCNc1ncc2c(n1)N(C)C(=O)N(c1c(Cl)c(OC)cc(OC)c1Cl)C2", "UniProtKB Q16816", "kinase still bound, per cent of control", "%", 100],
  ["CN(C)C/C=C/C(=O)Nc1ccc(C(=O)Nc2cccc(Nc3nccc(-c4cccnc4)n3)c2)cc1", "UniProtKB Q16816", "kinase still bound, per cent of control", "%", 96],
  ["CCN1CCN(C(=O)Cc2ccc(Nc3ncc(F)c(Nc4ccc(C(=O)Nc5ccccc5Cl)cc4)n3)cc2)CC1", "UniProtKB Q16816", "kinase still bound, per cent of control", "%", 82],
  ["O=c1cc(N2CCOCC2)oc2c(-c3cccc4c3sc3ccccc34)cccc12", "UniProtKB Q16816", "kinase still bound, per cent of control", "%", 100]
]}
